Biological target: full-length human PIKFYVE (Homo sapiens, UniProt Q9Y2I7, L932S/Q1183K/Q995L/S1033A/S696N/T998S)
Construct: A full-length human PIKFYVE [1-2098(end) amino acids and S696N, L932S, Q995L, T998S, S1033A and Q1183K
Sequence (Q9Y2I7 whole entry S696N/L932S/Q995L/T998S/S1033A/Q1183K): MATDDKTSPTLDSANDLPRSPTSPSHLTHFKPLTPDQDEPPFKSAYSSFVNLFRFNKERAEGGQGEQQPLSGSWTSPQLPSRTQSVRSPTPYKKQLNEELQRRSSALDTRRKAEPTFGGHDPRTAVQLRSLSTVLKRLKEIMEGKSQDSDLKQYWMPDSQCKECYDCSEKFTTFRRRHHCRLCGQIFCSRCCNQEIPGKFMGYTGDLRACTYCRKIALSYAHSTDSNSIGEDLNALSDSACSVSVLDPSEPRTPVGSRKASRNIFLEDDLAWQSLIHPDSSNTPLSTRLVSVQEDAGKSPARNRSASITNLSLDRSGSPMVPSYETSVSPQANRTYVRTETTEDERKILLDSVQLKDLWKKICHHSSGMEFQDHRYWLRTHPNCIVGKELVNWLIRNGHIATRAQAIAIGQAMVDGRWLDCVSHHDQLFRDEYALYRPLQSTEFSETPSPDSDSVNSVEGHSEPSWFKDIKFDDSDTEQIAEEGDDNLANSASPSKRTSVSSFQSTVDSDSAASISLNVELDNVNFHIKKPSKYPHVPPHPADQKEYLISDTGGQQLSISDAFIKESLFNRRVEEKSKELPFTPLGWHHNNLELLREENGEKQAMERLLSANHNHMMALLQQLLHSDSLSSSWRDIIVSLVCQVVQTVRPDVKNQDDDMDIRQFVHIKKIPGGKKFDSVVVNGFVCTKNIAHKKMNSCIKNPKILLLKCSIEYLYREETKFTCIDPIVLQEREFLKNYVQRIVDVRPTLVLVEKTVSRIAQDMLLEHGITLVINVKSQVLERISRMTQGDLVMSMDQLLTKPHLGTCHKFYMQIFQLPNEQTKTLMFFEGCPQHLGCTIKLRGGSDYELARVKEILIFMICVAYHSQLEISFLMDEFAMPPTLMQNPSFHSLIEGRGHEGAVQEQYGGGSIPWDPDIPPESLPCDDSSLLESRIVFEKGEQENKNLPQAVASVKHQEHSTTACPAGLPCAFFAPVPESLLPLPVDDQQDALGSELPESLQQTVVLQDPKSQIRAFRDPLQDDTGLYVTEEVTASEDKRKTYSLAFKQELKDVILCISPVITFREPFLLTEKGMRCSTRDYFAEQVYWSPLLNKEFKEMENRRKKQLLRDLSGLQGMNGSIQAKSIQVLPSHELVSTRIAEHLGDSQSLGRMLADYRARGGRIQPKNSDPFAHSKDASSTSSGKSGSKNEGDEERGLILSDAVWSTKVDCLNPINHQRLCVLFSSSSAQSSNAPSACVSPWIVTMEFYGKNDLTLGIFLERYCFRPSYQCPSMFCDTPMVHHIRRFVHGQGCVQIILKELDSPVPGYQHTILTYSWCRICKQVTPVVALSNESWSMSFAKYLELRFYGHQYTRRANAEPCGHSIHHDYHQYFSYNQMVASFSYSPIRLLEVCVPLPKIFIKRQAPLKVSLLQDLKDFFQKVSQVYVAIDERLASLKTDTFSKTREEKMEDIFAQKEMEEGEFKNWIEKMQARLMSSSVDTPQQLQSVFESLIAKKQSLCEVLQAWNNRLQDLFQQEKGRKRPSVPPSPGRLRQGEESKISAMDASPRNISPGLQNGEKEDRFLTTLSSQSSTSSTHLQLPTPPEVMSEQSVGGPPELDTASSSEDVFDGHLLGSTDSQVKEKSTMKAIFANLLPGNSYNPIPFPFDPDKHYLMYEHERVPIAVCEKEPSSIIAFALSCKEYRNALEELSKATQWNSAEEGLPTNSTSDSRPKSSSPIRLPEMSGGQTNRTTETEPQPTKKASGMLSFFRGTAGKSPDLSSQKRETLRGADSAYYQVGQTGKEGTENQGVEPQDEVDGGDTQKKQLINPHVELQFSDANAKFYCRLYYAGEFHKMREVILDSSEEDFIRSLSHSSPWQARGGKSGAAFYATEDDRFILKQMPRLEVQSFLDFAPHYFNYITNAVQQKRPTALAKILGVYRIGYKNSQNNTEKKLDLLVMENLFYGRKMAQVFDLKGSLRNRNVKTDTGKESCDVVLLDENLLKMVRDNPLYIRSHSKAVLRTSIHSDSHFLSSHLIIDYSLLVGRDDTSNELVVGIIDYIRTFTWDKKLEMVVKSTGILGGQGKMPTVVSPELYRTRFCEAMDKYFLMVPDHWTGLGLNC
Assay: PIKfyve biochemical assay (ADP-Glo Kinase assay, Carna Biosciences)
Conditions: GST-PIKFYVE, 10 μM to 3 nM in duplicate, read-out: hPIKfyve IC50
Source text: PIKfyve Biochemical Assay. The biochemical PIKFyve inhibition assays were run by Carna Biosciences according to proprietary methodology based on the Promega ADP-Glo™ Kinase assay. A full-length human PIKFYVE [1-2098(end) amino acids and S696N, L932S, Q995L, T998S, S1033A and Q1183K of the protein having the sequence set forth in NCBI Reference Sequence No. NP_055855.2] was expressed as N-terminal GST-fusion protein (265 kDa) using baculovirus expression system. […]
Recorded IC50 for the following molecules

>  <Molecule>
Brc1cnc2c(N3CCOCC3)nc(-n3ccc(-c4ccccc4)n3)nc2c1

>  <Metric>
IC50

>  <Result>
0.1 to 1 µM

$$$$
>  <Molecule>
Fc1cccc(-c2ccn(-c3nc(N4CCOCC4)c4ncc(C5CCOCC5)cc4n3)n2)c1

>  <Metric>
IC50

>  <Result>
0.01 to 0.1 µM

$$$$
>  <Molecule>
CC(C)(C)OC(=O)N1CCC(Cc2ccn(-c3nc(N4CCOCC4)c4ncccc4n3)n2)C1 (stereo not shown)

>  <Metric>
IC50

>  <Result>
1 to 10 µM

$$$$

Here's the next entry for you.
Inquiry: Bench note: what IC50 did Fc1ccc(-c2ccn(-c3nc(N4CCOCC4)c4ncc(C5CCOCC5)cc4n3)n2)cc1 show?
Reply text: 0.01 to 0.1 µM

###

Target: PIKfyve (Homo sapiens, UniProt Q9Y2I7)
Construct: PIKFYVE-NanoLuc® Fusion Vector (Promega) containing a full-length PIKfyve
Experiment: NanoBRET TE Intracellular Kinase Assay, K-8 (Promega) cell-based assay
Conditions: HEK293 cells transfected with PIKFYVE-NanoLuc, compounds 2 hours; read-out: hPIKfyve BRET IC50
pIC50: −log10 of the molar value.
Metric: pIC50

>  <Compound>
c1ccc(-c2ccn(-c3nc(N4CCOCC4)c4ncccc4n3)n2)nc1 [Compound 12]

>  <pIC50>
5.00 to 6.00

$$$$

Inquiry: Item under review: Oc1cc(-c2ccccc2)nn1-c1nc(N2CCOCC2)c2ncccc2n1 [Compound 71] . Reported pIC50?
Reply text: < 5.00
